A collection of molecules and their measured FPD (field-potential duration), % change from baseline
tested on: hiPSC-CMs (iCell-Cardiomyocytes^2); settings: 1 µM, 96h
reported property: FPD (field-potential duration), % change from baseline (%)

molecule: O=C(O)COCCN1CCN(C(c2ccccc2)c2ccc(Cl)cc2)CC1 (centres unmarked)
study target: hiPSC-CMs (iCell-Cardiomyocytes^2)
units symbol: %
measurement: 19

molecule: N=C(N)c1ccc(OCCCCCOc2ccc(C(=N)N)cc2)cc1
study target: hiPSC-CMs (iCell-Cardiomyocytes^2)
units symbol: %
measurement: 71.5

molecule: Cc1cn(-c2cc(NC(=O)c3ccc(C)c(Nc4nccc(-c5cccnc5)n4)c3)cc(C(F)(F)F)c2)cn1
study target: hiPSC-CMs (iCell-Cardiomyocytes^2)
units symbol: %
measurement: 208.7

molecule: CC(C)(Sc1cc(C(C)(C)C)c(O)c(C(C)(C)C)c1)Sc1cc(C(C)(C)C)c(O)c(C(C)(C)C)c1
study target: hiPSC-CMs (iCell-Cardiomyocytes^2)
units symbol: %
measurement: 9.2

molecule: C[C@H](CS)C(=O)N1CCC[C@H]1C(=O)O
study target: hiPSC-CMs (iCell-Cardiomyocytes^2)
units symbol: %
measurement: 22

molecule: C#Cc1cccc(Nc2ncnc3cc(OCCOC)c(OCCOC)cc23)c1
study target: hiPSC-CMs (iCell-Cardiomyocytes^2)
units symbol: %
measurement: 22.4

molecule: COc1nc(N)nc2c1ncn2[C@@H]1O[C@H](COP(=O)(N[C@@H](C)C(=O)OCC(C)(C)C)Oc2cccc3ccccc23)[C@@H](O)[C@@]1(C)O (some centres unmarked)
study target: hiPSC-CMs (iCell-Cardiomyocytes^2)
units symbol: %
measurement: -7.9

molecule: CC1(C)S[C@@H]2[C@H](NC(=O)[C@H](N)c3ccc(O)cc3)C(=O)N2[C@H]1C(=O)O
study target: hiPSC-CMs (iCell-Cardiomyocytes^2)
units symbol: %
measurement: 16.9

---

A collection of compounds and their measured BR (beating rate), % change from baseline
system: hiPSC-CMs (iCell-Cardiomyocytes^2); details: 0.3 µM, 48h
reported property: BR (beating rate), % change from baseline (%)

compound: COc1cccc2c1C(=O)c1c(O)c3c(c(O)c1C2=O)C[C@@](O)(C(=O)CO)C[C@@H]3O[C@H]1C[C@H](N)[C@H](O)[C@H](C)O1
units symbol: %
measurement: 40
//
compound: N=C(N)c1ccc(OCCCCCOc2ccc(C(=N)N)cc2)cc1
units symbol: %
measurement: -2
//
compound: CC(C)(Sc1cc(C(C)(C)C)c(O)c(C(C)(C)C)c1)Sc1cc(C(C)(C)C)c(O)c(C(C)(C)C)c1
units symbol: %
measurement: -1
//
compound: COc1nc(N)nc2c1ncn2[C@@H]1O[C@H](COP(=O)(N[C@@H](C)C(=O)OCC(C)(C)C)Oc2cccc3ccccc23)[C@@H](O)[C@@]1(C)O (stereo partly shown)
units symbol: %
measurement: 14
//
compound: O=C(O)COCCN1CCN(C(c2ccccc2)c2ccc(Cl)cc2)CC1 (stereo not shown)
units symbol: %
measurement: -4
//
compound: COc1cc2c(Nc3ccc(Br)cc3F)ncnc2cc1OCC1CCN(C)CC1
units symbol: %
measurement: -31
//
compound: CCN(CC)CCNC(=O)c1c(C)[nH]c(/C=C2\C(=O)Nc3ccc(F)cc32)c1C
units symbol: %
measurement: -39

---

system: hiPSC-CMs (iCell-Cardiomyocytes^2); conditions: 0.1 µM, 2h
A collection of compounds and their measured Flat T-wave-like, number of observations/total well numbers
reported property: Flat T-wave-like, number of observations/total well numbers

substance smiles: N=C(N)c1ccc(OCCCCCOc2ccc(C(=N)N)cc2)cc1
study target: hiPSC-CMs (iCell-Cardiomyocytes^2)
measurement: 0/6
//
substance smiles: COc1cccc2c1C(=O)c1c(O)c3c(c(O)c1C2=O)C[C@@](O)(C(=O)CO)C[C@@H]3O[C@H]1C[C@H](N)[C@H](O)[C@H](C)O1
study target: hiPSC-CMs (iCell-Cardiomyocytes^2)
measurement: 0/5
//
substance smiles: COc1cc2c(Nc3ccc(Br)cc3F)ncnc2cc1OCC1CCN(C)CC1
study target: hiPSC-CMs (iCell-Cardiomyocytes^2)
measurement: 0/5
//
substance smiles: Cc1cn(-c2cc(NC(=O)c3ccc(C)c(Nc4nccc(-c5cccnc5)n4)c3)cc(C(F)(F)F)c2)cn1
study target: hiPSC-CMs (iCell-Cardiomyocytes^2)
measurement: 0/5

---

A collection of compounds and their measured FPD (field-potential duration), % change from baseline
tested on: hiPSC-CMs (iCell-Cardiomyocytes^2); conditions: 1 µM, 2h
reported property: FPD (field-potential duration), % change from baseline (%)

compound: CCN(CC)CCNC(=O)c1c(C)[nH]c(/C=C2\C(=O)Nc3ccc(F)cc32)c1C
measurement: 182.8
//
compound: C[C@H](CS)C(=O)N1CCC[C@H]1C(=O)O
measurement: 0
//
compound: COc1nc(N)nc2c1ncn2[C@@H]1O[C@H](COP(=O)(N[C@@H](C)C(=O)OCC(C)(C)C)Oc2cccc3ccccc23)[C@@H](O)[C@@]1(C)O (stereo partly shown)
measurement: -3.6
//
compound: CC(C)(Sc1cc(C(C)(C)C)c(O)c(C(C)(C)C)c1)Sc1cc(C(C)(C)C)c(O)c(C(C)(C)C)c1
measurement: 0.8
//
compound: Cc1cn(-c2cc(NC(=O)c3ccc(C)c(Nc4nccc(-c5cccnc5)n4)c3)cc(C(F)(F)F)c2)cn1
measurement: 80.6
//
compound: O=C(O)COCCN1CCN(C(c2ccccc2)c2ccc(Cl)cc2)CC1 (stereo not shown)
measurement: 3.3
//
compound: CC1(C)S[C@@H]2[C@H](NC(=O)[C@H](N)c3ccc(O)cc3)C(=O)N2[C@H]1C(=O)O
measurement: -1
//
compound: C#Cc1cccc(Nc2ncnc3cc(OCCOC)c(OCCOC)cc23)c1
measurement: 3.4
//
compound: COc1cccc2c1C(=O)c1c(O)c3c(c(O)c1C2=O)C[C@@](O)(C(=O)CO)C[C@@H]3O[C@H]1C[C@H](N)[C@H](O)[C@H](C)O1
measurement: 2.8
//
compound: N=C(N)c1ccc(OCCCCCOc2ccc(C(=N)N)cc2)cc1
measurement: 3.6

---

system: hiPSC-CMs (iCell-Cardiomyocytes^2); conditions: 3 µM; 2h
reported property: Cessation of beating, number of observations/total well numbers

compound: COc1cc2c(Nc3ccc(Br)cc3F)ncnc2cc1OCC1CCN(C)CC1
measurement: 0/5
//
compound: COc1cccc2c1C(=O)c1c(O)c3c(c(O)c1C2=O)C[C@@](O)(C(=O)CO)C[C@@H]3O[C@H]1C[C@H](N)[C@H](O)[C@H](C)O1
measurement: 0/5
//
compound: COc1nc(N)nc2c1ncn2[C@@H]1O[C@H](COP(=O)(N[C@@H](C)C(=O)OCC(C)(C)C)Oc2cccc3ccccc23)[C@@H](O)[C@@]1(C)O (stereo partly drawn)
measurement: 0/5
//
compound: C#Cc1cccc(Nc2ncnc3cc(OCCOC)c(OCCOC)cc23)c1
measurement: 0/5
//
compound: CC(C)(Sc1cc(C(C)(C)C)c(O)c(C(C)(C)C)c1)Sc1cc(C(C)(C)C)c(O)c(C(C)(C)C)c1
measurement: 0/5
//
compound: N=C(N)c1ccc(OCCCCCOc2ccc(C(=N)N)cc2)cc1
measurement: 0/6

---

test system: hiPSC-CMs (iCell-Cardiomyocytes^2); details: 0.3 µM, 96h
A collection of compounds and their measured BR (beating rate), % change from baseline
reported property: BR (beating rate), % change from baseline (%)

compound: CC(C)(Sc1cc(C(C)(C)C)c(O)c(C(C)(C)C)c1)Sc1cc(C(C)(C)C)c(O)c(C(C)(C)C)c1
measurement: 0
--
compound: COc1cc2c(Nc3ccc(Br)cc3F)ncnc2cc1OCC1CCN(C)CC1
measurement: -43
--
compound: COc1nc(N)nc2c1ncn2[C@@H]1O[C@H](COP(=O)(N[C@@H](C)C(=O)OCC(C)(C)C)Oc2cccc3ccccc23)[C@@H](O)[C@@]1(C)O (stereo partly drawn)
measurement: 30
--
compound: N=C(N)c1ccc(OCCCCCOc2ccc(C(=N)N)cc2)cc1
measurement: -20
--
compound: CCN(CC)CCNC(=O)c1c(C)[nH]c(/C=C2\C(=O)Nc3ccc(F)cc32)c1C
measurement: -44
--
compound: O=C(O)COCCN1CCN(C(c2ccccc2)c2ccc(Cl)cc2)CC1 (stereo not drawn)
measurement: -6

---

tested on: hiPSC-CMs (iCell-Cardiomyocytes^2); settings: 3 µM, 72h
reported property: Flat T-wave-like, number of observations/total well numbers

compound: C#Cc1cccc(Nc2ncnc3cc(OCCOC)c(OCCOC)cc23)c1 [Erlotinib]
study target: hiPSC-CMs (iCell-Cardiomyocytes^2)
measurement: 0/5
//
compound: COc1cc2c(Nc3ccc(Br)cc3F)ncnc2cc1OCC1CCN(C)CC1 [Vandetanib]
study target: hiPSC-CMs (iCell-Cardiomyocytes^2)
measurement: 0/5
//
compound: N=C(N)c1ccc(OCCCCCOc2ccc(C(=N)N)cc2)cc1 [Pentamidine]
study target: hiPSC-CMs (iCell-Cardiomyocytes^2)
measurement: 1/6
//
compound: COc1cccc2c1C(=O)c1c(O)c3c(c(O)c1C2=O)C[C@@](O)(C(=O)CO)C[C@@H]3O[C@H]1C[C@H](N)[C@H](O)[C@H](C)O1 [Doxorubicin]
study target: hiPSC-CMs (iCell-Cardiomyocytes^2)
measurement: 0/5
//
compound: COc1nc(N)nc2c1ncn2[C@@H]1O[C@H](COP(=O)(N[C@@H](C)C(=O)OCC(C)(C)C)Oc2cccc3ccccc23)[C@@H](O)[C@@]1(C)O (stereo partly drawn) [BMS-986094]
study target: hiPSC-CMs (iCell-Cardiomyocytes^2)
measurement: 5/5
//
compound: CC(C)(Sc1cc(C(C)(C)C)c(O)c(C(C)(C)C)c1)Sc1cc(C(C)(C)C)c(O)c(C(C)(C)C)c1 [Probucol]
study target: hiPSC-CMs (iCell-Cardiomyocytes^2)
measurement: 0/5
